B1: NECAB1 (parent)
chain: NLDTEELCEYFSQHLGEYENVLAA

- Variants of: B1
- EXPERIMENT_SUMMARY: protein stability index of a GFP-peptide fusion (GPS, HEK-293T) (PSI 1-6); higher = more stable;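 further: lentivirally expressed fusions sorted by FACS into six bins by GFP to DsRed ratio, PSI derived from sequencing read proportions per bin multiplied by bin number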
- CONDITIONS_USED: c terminus: a fixed tail appended
# binarize protein stability index: threshold 3 inclusive, high side true, low side false

A23V: false
L15K: true
L7G: true
L2S: true
F11G: true
E17G: false
T4V: false
S12L: false

QUERY: Tell me whether protein stability index is at least 3 here: H14L
RESULT: false

QUERY: Is the recorded value of protein stability index equal to or greater than 3 for this variant? E6H
RESULT: false
